Molecular target: Alpha-1A adrenergic receptor (Homo sapiens)
Sequence (P35348 whole entry): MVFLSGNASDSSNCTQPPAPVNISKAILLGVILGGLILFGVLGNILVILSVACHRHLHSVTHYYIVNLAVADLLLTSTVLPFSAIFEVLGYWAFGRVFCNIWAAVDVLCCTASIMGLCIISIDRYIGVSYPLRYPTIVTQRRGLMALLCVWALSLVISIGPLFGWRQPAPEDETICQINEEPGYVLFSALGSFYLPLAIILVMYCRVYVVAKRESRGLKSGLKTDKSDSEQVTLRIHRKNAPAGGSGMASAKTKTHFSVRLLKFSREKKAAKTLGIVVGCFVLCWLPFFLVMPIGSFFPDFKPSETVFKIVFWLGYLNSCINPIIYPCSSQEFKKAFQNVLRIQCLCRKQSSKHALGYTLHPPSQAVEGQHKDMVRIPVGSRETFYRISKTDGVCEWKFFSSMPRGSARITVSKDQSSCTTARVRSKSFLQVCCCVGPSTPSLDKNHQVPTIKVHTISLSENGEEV
Assay: Displacement of [3H]Prazosin from human recombinant alpha 1A receptor after 90 mins by scintillation counting method
pKi: −log10 of the molar value.
valueKind: pKi

{"chemicalSmiles": "COc1ccc(CCN(CCCc2ccccc2)CCc2ccc3c(c2)OCO3)cc1OC", "valueKind": "pKi", "experimentalResult": 6.48}

---

target: Alpha-1D adrenergic receptor (Homo sapiens, UniProt P25100); assay: Displacement of [3H]Prazosin from human recombinant alpha 1D receptor after 90 mins by scintillation counting method
Sequence (P25100 whole entry): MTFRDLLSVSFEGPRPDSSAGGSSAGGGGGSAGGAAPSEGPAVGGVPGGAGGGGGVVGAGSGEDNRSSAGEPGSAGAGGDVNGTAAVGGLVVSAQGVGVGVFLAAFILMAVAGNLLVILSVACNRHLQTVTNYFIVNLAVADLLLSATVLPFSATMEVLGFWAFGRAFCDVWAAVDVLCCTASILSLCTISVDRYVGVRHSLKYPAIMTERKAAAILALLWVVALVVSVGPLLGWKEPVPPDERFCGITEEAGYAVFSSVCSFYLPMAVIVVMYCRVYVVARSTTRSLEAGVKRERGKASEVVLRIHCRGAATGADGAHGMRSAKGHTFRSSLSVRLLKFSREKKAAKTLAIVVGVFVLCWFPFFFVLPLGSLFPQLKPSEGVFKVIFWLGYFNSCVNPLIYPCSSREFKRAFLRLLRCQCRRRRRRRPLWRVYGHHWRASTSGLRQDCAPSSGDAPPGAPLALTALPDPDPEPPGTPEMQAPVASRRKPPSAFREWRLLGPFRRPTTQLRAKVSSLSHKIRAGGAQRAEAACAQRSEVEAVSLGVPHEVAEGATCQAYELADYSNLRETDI
valueKind: Ki (nM)

{"chemicalSmiles": "COc1ccc(CCN(CCCc2ccccc2)CCc2ccc3c(c2)OCO3)cc1OC", "unitsText": "nM", "experimentalResult": 467}

---

Listed below: Ki values for each entry.
target: 5-hydroxytryptamine receptor 2C (Homo sapiens, UniProt P28335); assay: Displacement of [3H]mesulergine from human recombinant 5-HT2C receptor expressed in Flp-IN HEK cell membrane after 90 mins by scintillation counting method; format: cell membranes, HEK293; conditions: read-out: Ki
Sequence (P28335 whole entry): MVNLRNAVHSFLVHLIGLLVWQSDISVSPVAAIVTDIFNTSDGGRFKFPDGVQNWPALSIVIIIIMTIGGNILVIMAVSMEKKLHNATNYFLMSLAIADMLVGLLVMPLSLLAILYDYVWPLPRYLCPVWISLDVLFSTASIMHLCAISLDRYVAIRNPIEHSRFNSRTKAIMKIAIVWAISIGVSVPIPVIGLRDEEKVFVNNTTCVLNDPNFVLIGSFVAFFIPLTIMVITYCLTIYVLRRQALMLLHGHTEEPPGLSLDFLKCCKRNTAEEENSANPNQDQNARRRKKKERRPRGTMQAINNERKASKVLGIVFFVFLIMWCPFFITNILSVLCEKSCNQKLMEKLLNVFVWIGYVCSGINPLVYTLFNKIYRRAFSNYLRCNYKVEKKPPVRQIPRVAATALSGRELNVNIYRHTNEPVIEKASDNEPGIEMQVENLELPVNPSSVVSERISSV
valueKind: Ki (nM)

{"compound": "COc1ccc(CCN(CCCc2ccccc2)CCc2ccc3c(c2)OCO3)cc1OC", "assayedSystem": "5-hydroxytryptamine receptor 2C (Homo sapiens, UniProt P28335)", "valueKind": "Ki", "experimentalResult": 399}
{"compound": "COc1cccc(CCCN(CCc2ccc(OC)c(OC)c2)Cc2ccc3c(c2)OCO3)c1", "assayedSystem": "5-hydroxytryptamine receptor 2C (Homo sapiens, UniProt P28335)", "valueKind": "Ki", "experimentalResult": 103}
{"compound": "COc1ccccc1CCCN(CCc1ccc(OC)c(OC)c1)CCc1ccc2c(c1)OCO2", "assayedSystem": "5-hydroxytryptamine receptor 2C (Homo sapiens, UniProt P28335)", "valueKind": "Ki", "experimentalResult": 123}
{"compound": "COc1cccc(CCCN(CCc2ccc(OC)c(OC)c2)CCc2ccc3c(c2)OCO3)c1", "assayedSystem": "5-hydroxytryptamine receptor 2C (Homo sapiens, UniProt P28335)", "valueKind": "Ki", "experimentalResult": 108}
{"compound": "COc1ccc(OC)c(CCCN(CCc2ccc(OC)c(OC)c2)CCc2ccc3c(c2)OCO3)c1", "assayedSystem": "5-hydroxytryptamine receptor 2C (Homo sapiens, UniProt P28335)", "valueKind": "Ki", "experimentalResult": 273}
{"compound": "COc1ccc(CCN(CC/C=C\\c2ccccc2)Cc2ccc3c(c2)OCO3)cc1OC", "assayedSystem": "5-hydroxytryptamine receptor 2C (Homo sapiens, UniProt P28335)", "valueKind": "Ki", "experimentalResult": 241}
{"compound": "COc1ccc(CCCN(CCc2ccc(OC)c(OC)c2)CCc2ccc3c(c2)OCO3)cc1", "assayedSystem": "5-hydroxytryptamine receptor 2C (Homo sapiens, UniProt P28335)", "valueKind": "Ki", "experimentalResult": 206}
{"compound": "COc1ccc(CCN(CCc2ccccc2)CCc2ccc3c(c2)OCO3)cc1OC", "assayedSystem": "5-hydroxytryptamine receptor 2C (Homo sapiens, UniProt P28335)", "valueKind": "Ki", "experimentalResult": 690}
{"compound": "COc1ccc(CCN(CCCc2cc(OC)c(OC)c(OC)c2)CCc2ccc3c(c2)OCO3)cc1OC", "assayedSystem": "5-hydroxytryptamine receptor 2C (Homo sapiens, UniProt P28335)", "valueKind": "Ki", "experimentalResult": 194}
{"compound": "Cc1nc2sccn2c(=O)c1CCN1CCC(=C(c2ccc(F)cc2)c2ccc(F)cc2)CC1 [RITANSERIN]", "assayedSystem": "5-hydroxytryptamine receptor 2C (Homo sapiens, UniProt P28335)", "valueKind": "Ki", "experimentalResult": 1.8}
{"compound": "COc1ccc(CCN(CCc2ccc3c(c2)OCO3)Cc2ccccc2)cc1OC", "assayedSystem": "5-hydroxytryptamine receptor 2C (Homo sapiens, UniProt P28335)", "valueKind": "Ki", "experimentalResult": 1090}
